Target Or Test System: human Fab of κ-type (Homo sapiens, UniProt P01834+P01857)
Sequence (P01857 with tags, fused parts or gaps, other chains not shown): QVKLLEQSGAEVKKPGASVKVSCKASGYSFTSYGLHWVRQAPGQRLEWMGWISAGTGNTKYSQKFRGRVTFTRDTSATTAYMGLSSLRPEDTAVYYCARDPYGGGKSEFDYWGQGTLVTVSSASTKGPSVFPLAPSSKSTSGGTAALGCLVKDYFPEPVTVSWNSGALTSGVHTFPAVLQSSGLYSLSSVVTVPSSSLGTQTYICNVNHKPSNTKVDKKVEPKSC
Run Description: STD NMR screening (1D saturation transfer difference) for binding to antibody
Set-up: key: 0 no; 1 weak; 2 strong signal
Stated Conditions: 500 nM antibody, 0.5 mM ligand, 298 K
Measured Endpoint: NMR signal conc 1
Form: value (number only, do not type unit).

Challenge: Input OC(CNCc1ccccc1)C(F)(F)F (stereo not drawn) [AB_0001000] , output reported NMR signal conc 1.
Response given: 1

Challenge: Input Clc1ccc(OCc2noc(CSc3ccccn3)n2)cc1 [AB_0001290] , output reported NMR signal conc 1.
Response given: 2

Challenge: Input O=C1C(=Cc2ccccc2)C(=O)c2ccccc21 [AB_0000730, 2-benzylidene-1,3-indandione] , output reported NMR signal conc 1.
Response given: 0
